MIC values for the molecules below.
test system: Enterococcus faecalis; assay: Antibacterial activity against vancomycin-resistant, teicoplanin resistant Enterococcus faecalis HS0649 incubated for 24 hrs by broth microdilution method; assay type: functional
Numeric answer plus unit only.

>  <smilesRepr>
CN[C@H](CC(C)C)C(=O)N[C@H]1C(=O)N[C@@H](CC(N)=O)C(=O)N[C@H]2C(=O)N[C@H]3C(=O)N[C@H](C(=O)N[C@H](C(=O)O)c4cc(O)cc(O)c4-c4cc3ccc4O)[C@H](O)c3ccc(c(Cl)c3)Oc3cc2cc(c3O[C@@H]2O[C@H](CO)[C@@H](O)[C@H](O)[C@H]2O[C@H]2C[C@](C)(N)[C@H](O)[C@H](C)O2)Oc2ccc(cc2Cl)[C@H]1O

>  <targetEntity>
Enterococcus faecalis

>  <observedMeasurement>
0.5 µg/mL

$$$$
>  <smilesRepr>
O=C(c1cc(C(F)(F)F)n[nH]1)c1cc(Cl)c(F)cc1O

>  <targetEntity>
Enterococcus faecalis

>  <observedMeasurement>
1 µg/mL

$$$$
>  <smilesRepr>
N#Cc1cc(C(=O)c2cc(Cl)c(Cl)cc2O)[nH]n1

>  <targetEntity>
Enterococcus faecalis

>  <observedMeasurement>
0.5 µg/mL

$$$$

Note: attention shifts to another entry.
Need MIC, item `O=C(c1cc(C(F)(F)F)n[nH]1)c1cc(Cl)c(Cl)cc1O`
0.5 µg/mL

----------
system: Staphylococcus aureus; assay: Antimicrobial activity against methicillin-resistant Staphylococcus aureus USA300 LAC incubated for 24 hrs by broth microdilution method; assay type: functional
readoutLabel: MIC (µg/mL)
Numbers only here, please. The scale is µg/mL.

>  <smilesRepr>
N#Cc1cc(C(=O)c2cc(Cl)c(F)cc2O)[nH]n1

>  <valueUnits>
µg/mL

>  <observedMeasurement>
0.5

$$$$

MIC of `Cc1cc(C(=O)c2cc(C(F)(F)F)n[nH]2)c(O)cc1F` on Staphylococcus aureus?
0.25

MIC of `N#Cc1n[nH]c2c(=O)c3c(O)c(Cl)cc(Cl)c3oc12` on Staphylococcus aureus?
8

MIC of `Cc1cc(C(=O)c2cc(C#N)n[nH]2)c(O)cc1F` on Staphylococcus aureus?
0.5

MIC of `O=c1c2[nH]nc(C(F)(F)F)c2sc2c(Cl)cc(Cl)c(O)c12` on Staphylococcus aureus?
2

MIC of `O=C(c1cc(C(F)(F)F)n[nH]1)c1cc(F)c(F)cc1O` on Staphylococcus aureus?
0.5

MIC of `N#Cc1cc(C(=O)c2cc(Cl)cc(Cl)c2O)[nH]n1` on Staphylococcus aureus?
2

MIC of `O=c1c2[nH]nc(C(F)(F)F)c2oc2c(Cl)cc(Cl)c(O)c12` on Staphylococcus aureus?
2

----------
MIC values for the molecules below.
tested on: Staphylococcus aureus; assay: Antimicrobial activity against methicillin-resistant Staphylococcus aureus USA300 LAC incubated for 24 hrs by broth microdilution method; assay type: functional

Need MIC, item `N#Cc1n[nH]c2c1S(=O)(=O)c1ccccc1C2=O`
> 256 µg/mL

Need MIC, item `O=C1c2ccccc2S(=O)(=O)c2c(C(F)(F)F)n[nH]c21`
> 256 µg/mL

Need MIC, item `O=c1c2ccccc2sc2c(C(F)(F)F)n[nH]c12`
> 256 µg/mL
